meta.source: patent US11566007B2

molecular target: NRAS G12C (Homo sapiens (Human), UniProt P01111+P62937, G12C); assay: Ras-Raf (BRAF RBD) disruption / FRET / MOA assay, NRAS G12C; assay type: biochemical; details: read-out: IC50* NRAS G12C FRET data
Sequence (P01111 whole entry G12C): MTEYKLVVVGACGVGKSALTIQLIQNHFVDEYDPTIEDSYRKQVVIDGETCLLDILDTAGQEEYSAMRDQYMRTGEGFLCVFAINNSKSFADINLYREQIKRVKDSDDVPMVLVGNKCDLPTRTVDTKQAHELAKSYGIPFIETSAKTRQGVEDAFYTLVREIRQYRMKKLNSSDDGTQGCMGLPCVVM
Sequence (P62937 whole entry): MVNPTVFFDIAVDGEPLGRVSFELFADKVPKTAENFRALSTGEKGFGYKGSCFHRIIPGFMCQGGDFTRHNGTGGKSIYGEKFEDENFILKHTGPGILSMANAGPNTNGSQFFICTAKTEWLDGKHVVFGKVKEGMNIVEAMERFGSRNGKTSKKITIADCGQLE
pIC50: −log10 of the molar value.
Examples of compounds with documented pIC50 follow.

// worked examples, pIC50 included
1. C=CC(=O)N1CC[C@H](C(=O)N(C)[C@H](C(=O)N[C@H]2Cc3ncc(n3C)-c3ccc4c(c3)c(c(-c3cccnc3[C@H](C)OC)n4CC)CC(C)(C)COC(=O)[C@@H]3CCCN(N3)C2=O)C(C)C)C1 (atropisomer, axis not shown); 5.00 to 6.00
2. C=CC(=O)N1CCN(C(=O)N(C)[C@H](C(=O)N[C@H]2Cc3nc(cs3)-c3ccc4c(c3)c(c(-c3cccnc3[C@H](C)OC)n4CC)CC(C)(C)COC(=O)[C@@H]3CCCN(N3)C2=O)C(C)C)[C@H]2C[C@H]21 (atropisomer, axis not shown); 7.00 to 8.00

Proceed to the following item.
**Query** What pIC50 value was documented for this compound, C=CC(=O)Nc1cnc(C(=O)N(C)[C@H](C(=O)N[C@H]2Cc3cccc(c3)-c3ccc4c(c3)c(c(-c3cccnc3[C@H](C)OC)n4CC)CC(C)(C)COC(=O)[C@@H]3CCCN(N3)C2=O)C(C)C)n1C (atropisomer, axis not shown) [Example A524] ?
**Result** 6.00 to 7.00
